B1: library; numbered along this chain (parent)
chain: MNIQIGELAKRTACPVVTIRFYEQEGLLPPPGRSRGNFRLYGEEHVERLQFIRHCRSLDMPLSDVRTLLSYRKRPDQDCGEVNMLLDEHIRQVESRIGALLELKHHLVELREACSGARPAQSCGILQGLSDCVCDTRGTTAHPSD

Variants of: B1
experiment: sfGFP reporter fluorescence (15 h) (µM FITC); higher = stronger transcriptional activation
reported conditions: library round: Round 1; ligand: 30 µM Zn

- biosequence: "MNIQIGELAKRTACPVVTIRFYEQEGLLPPPGRSRGNFRLYGEEHVERLQFIRHCRSLDMPLSDVRTLLSYRKRPDQDCGEVNMLLDEHIRQVESRIGALLELKHHLVELREACSGARPAQSCGILQLLSDCVCATRGTTAHPSD [G128L D135A]"
  sfGFP reporter fluorescence: 0.981
- biosequence: "MNIQIGELAKRTACPVVTIRFYEQEGLLPPPGRSRGNFRLYGEEHVERLQFIRHCRSLDMNLSTVRTLLSYRKRPDQDCGEVNMLLDEHIRQVESRIGALLELKHHLVELREACSGARPAQSCGILQGLSDCVCDTRGTTAHPSD [P61N D64T]"
  sfGFP reporter fluorescence: 3.56
- biosequence: "MNIQIGELAKRTACPVVTIRFYEQEGLLPPPGRSRGNFRLYGEEHVERLQFIRHCRSLDMPLSDVRTLLSYRKRPDQDCGEVTMLLDEHIRQVESRSGALLELGHHLVELREACSGARPAQSCGILQGLSDCVCDTRGTTAHPSD [N83T I97S K104G]"
  sfGFP reporter fluorescence: 0.102
- biosequence: "MNIQIGELAKRTACPVVTIRFYEQEGLLPPPGRSRGNFRLYGEEHVERLQFIRHCRSLDMPLSTVRTLLSYRKRPDQDCGEVNMLLDEHIRQVESRIGALLELKHHLVELFEACSGARPAQSCGILQGLSDCVCDTRGTTAHPSD [D64T R111F]"
  sfGFP reporter fluorescence: 1.71
- biosequence: "MNIQIGELAKRTACPVVTIRFYEQEGLLPPPGRSRGNFRLYGEEHVERLQFIRHCRSLDMDLSKVRTLLSYRKRPDQDCGEVNMLLDEHIRQVESRIGALLELKHHLVELREACSGARPAQSCGILQGLSDCVCATRGTTAHPSD [P61D D64K D135A]"
  sfGFP reporter fluorescence: 1.12
- biosequence: "MNIQIGELAKRTACPVVTIRFYEQEGLLPPPGRSRGNFRLYGEEHVERLQFIRHCRSLDLPLSKVRTLLSYRKRPDQDCGEVNMLLDEHIRQVESRIGALLELTHHLVELREACSGARPAQSCGILQGLSDCVCDTRGTTAHPSD [M60L D64K K104T]"
  sfGFP reporter fluorescence: 2.22
- biosequence: "MNIQIGELAKRTACPVVTIRFYEQEGLLPPPGRSRGNFRLYGEEHVERLQFIRHCRSLDMPLSDVRTLLSYRKRPDQDCGEVNMLLDEHIRQVESRIGALLELKHHLVELREACSGARPAQSCGILQGLSDCVCASRGTTAHPSD [D135A T136S]"
  sfGFP reporter fluorescence: 0.424
- biosequence: "MNIQIGELAKRTACPVVTIRFYEQEGLLPPPGRSRGNFRLYGEEHVERLQFIRHCRSLDMPLSKVRTLLSYRKRPDQDCGEVNMLLDEHIRQVESRIGALLELKHHLVELREACSGARPAQSCGILQGLSACVCDTRGTTAHPSD [D64K D131A]"
  sfGFP reporter fluorescence: 1.76
- biosequence: "MNIQIGELAKRTACPVVTIRFYEQEGLLPPPGRSRGNFRLYGEEHVERLQFIRHCRSLDMPLSDVRTLLSYRKRPDQDCGEVTMLLDEHIRQVESRIGALLELKHHCVELREACSGARPAQSCGILQMLSDCVCDTRGTTAHPSD [N83T L107C G128M]"
  sfGFP reporter fluorescence: 2.39
- biosequence: "MNIQIGELAKRTACPVVTIRFYEQEGLLPPPGRSRGNFRLYGEEHVERLQFIRHCRSFDMNLSDVRTLLSYRKRPDQDCGEVNMLLDEHIRQVESRIGALLELKHHLVELREACSGARPAQSCGILQGLSDCVCDTRGTTAHPSD [L58F P61N]"
  sfGFP reporter fluorescence: 0.219
- biosequence: "MNIQIGELAKRTACPVVTIRFYEQEGLLPPPGRSRGNFRLYGEEHVERLQFIRHCRSLDMPLSDVRTLLSYRKRPDQDCGEVTMLLDEHIRQVESRIGALLELKHHLVELREACSGARPAQSCGILQGLSACVCDTRGTTAHISD [N83T D131A P143I]"
  sfGFP reporter fluorescence: 0.158
- biosequence: "MNIQIGELAKRTACPVVTIRFYEQEGLLPPPGRSRGNFFLYGEEHCERLQFIRHCRSLDMPLSDVRTLLSYRKRPDQDCGEVNMLLDEHIRQVESRIGALLELKHHLVELREACSGARPAQSCGILQGLSDCVCDTRGTTAHPSD [R39F V46C]"
  sfGFP reporter fluorescence: 0.0655
- biosequence: "MNIQIGELAKRTACPVVTIRFYEQEGLLPPPGRSRGNFRLYGEEHVERLQFIRHCRSLDMPLSDVRTLLSYRKRPDQDCGEVTMLLDEHIRQVESRIGALLELKHHLVELRAACSGARPAQSCGILQGLSDCVCDTRGTTAHPSD [N83T E112A]"
  sfGFP reporter fluorescence: 0.194
